Test system: Zymoseptoria tritici (SEPTTR-184)
Procedure Summary: Cyp51 dsRNA tile (fragment) foliar application bioassay (Example 6)
Type: in vivo
Experimental Setup: 3 days curative; calculated from disease control
Listed here: items and their measured ED50 (ppm) SEPTTR-184 3DC.
Measurement Name: ED50 (ppm) SEPTTR-184 3DC

>>> experimental_value("MgCyp51-T12: dsRNA tile of Zymoseptoria tritici Cyp51, 138 bp, location 1377-1514 (nucleic acid, listed as Zymoseptoria tritici) TGGCTACGGCCTGGTAAGCAAGGGCGCGGCGTCGCCATACTTACCCTTTGGTGCGGGACGACACAGATGTATCGGCGAGCAATTCGCGTACGTGCAATTGCAGACCATTACAGCGACGATGGTTCGCGATTTCAAGTT")
24.219
>>> experimental_value("MgCyp51-T6: dsRNA tile of Zymoseptoria tritici Cyp51, 280 bp, location 881-1160 (nucleic acid, listed as Zymoseptoria tritici) ATGCCATTCCCGACAAGGAGATTGCTCATATGATGATTGCGCTGCTCATGGCCGGCCAGCACTCTTCATCTGCGACCGAGTCCTGGATCACTCTCCGCCTCGCATCCCGCCCCGACATCCAAGACGAACTCCTCCAAGAACAAAAGGATATGCTCGGTGTGAACGCCGACGGCAGTATCAAGGAGCTCACATACGCCAACCTCTCGAAACTCACCCTCCTCAATCAAGTCGTCAAAGAAACCCTTCGTATTCACGCTCCAATCCACTCCATTCTGCGCAA")
29.167
